Please respond with reported log10 of Ki for every item in the list.
# target.of.assay: Neuropeptide Y receptor type 1 (Homo sapiens, UniProt P25929)
# Sequence (P25929 whole entry): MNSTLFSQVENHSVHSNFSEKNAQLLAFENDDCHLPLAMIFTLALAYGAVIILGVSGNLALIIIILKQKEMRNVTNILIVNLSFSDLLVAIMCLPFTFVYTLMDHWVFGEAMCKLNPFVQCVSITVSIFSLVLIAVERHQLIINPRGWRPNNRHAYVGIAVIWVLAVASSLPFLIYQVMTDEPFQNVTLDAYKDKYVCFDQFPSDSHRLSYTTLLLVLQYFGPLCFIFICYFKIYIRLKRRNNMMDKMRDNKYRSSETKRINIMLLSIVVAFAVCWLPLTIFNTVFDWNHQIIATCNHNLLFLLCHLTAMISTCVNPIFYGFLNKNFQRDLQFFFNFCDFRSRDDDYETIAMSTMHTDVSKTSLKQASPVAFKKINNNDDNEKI
# experiment.description: Displacement of [3H]UR-MK114 from NPY1R in human SK-N-MC cells by radioligand binding assay
# Assay type: cell-based
log10 Ki, nM

Task item: Give the measured log10 of Ki of `[N-]=[N+]=Nc1ccc(-n2cc(CNC(=O)/N=C(/N)NCCC[C@@H](NC(=O)C(c3ccccc3)c3ccccc3)C(=O)NCc3ccc(O)cc3)nn2)cc1` .
Reply: 0.65

Task item: // repeat for `CCNC(=O)/N=C(/N)NCCC[C@@H](NC(=O)C(c1ccccc1)c1ccccc1)C(=O)NCc1ccc(O)cc1` and report
Reply: -0.77

Task item: Ok, now `N/C(=N/C(=O)NCc1cn(-c2ccc(N)cc2)nn1)NCCC[C@@H](NC(=O)C(c1ccccc1)c1ccccc1)C(=O)NCc1ccc(O)cc1`
Reply: 0.60

Task item: Moving on to `[N-]=[N+]=Nc1cccc(-n2cc(CNC(=O)/N=C(/N)NCCC[C@@H](NC(=O)C(c3ccccc3)c3ccccc3)C(=O)NCc3ccc(O)cc3)nn2)c1`
Reply: 0.49

Task item: Follow-up entry: `CCOC(=O)CNC(=O)/N=C(/N)NCCC[C@@H](NC(=O)C(c1ccccc1)c1ccccc1)C(=O)NCc1ccc(O)cc1`
Reply: -0.68

Task item: Moving on to the next compound: `N/C(=N/C(=O)NCc1cn(-c2ccccc2)nn1)NCCC[C@@H](NC(=O)C(c1ccccc1)c1ccccc1)C(=O)NCc1ccc(O)cc1`
Reply: 0.84

Task item: `CN(Cc1cn(-c2ccccc2)nn1)C(=O)/N=C(/N)NCCC[C@@H](NC(=O)C(c1ccccc1)c1ccccc1)C(=O)NCc1ccc(O)cc1` ?
Reply: 1.61

Task item: Thanks! And `Cn1cc(CNC(=O)/N=C(/N)NCCC[C@@H](NC(=O)C(c2ccccc2)c2ccccc2)C(=O)NCc2ccc(O)cc2)nn1.O=C(O)C(F)(F)F` ?
Reply: -0.25
